molecular target: purified HLA DRB1*0405 (human); assay: competition with 125I-labelled reference peptide, purified HLA
pIC50: −log10 of the molar value.
Below: a set of entries, each annotated with reported pIC50.
Reported Metric: pIC50

>  <Binder>
NNMINNDLGPATAQM (modifications not checked) [Flu.PB1.535]

>  <Result>
< 5.00

$$$$
>  <Binder>
AKSMEYDAVATTHSW (modifications not checked) [Flu.PB1.655]

>  <Result>
6.20

$$$$
>  <Binder>
AGLLVSDGGPNLYNI (modifications not checked) [Flu.PB1.590]

>  <Result>
< 5.00

$$$$
